# system-name: T1, hemagglutinin (HA) of influenza B virus B/Lee/1940, on purified virus (influenza B virus (B/Lee/1940))
# T1 chain: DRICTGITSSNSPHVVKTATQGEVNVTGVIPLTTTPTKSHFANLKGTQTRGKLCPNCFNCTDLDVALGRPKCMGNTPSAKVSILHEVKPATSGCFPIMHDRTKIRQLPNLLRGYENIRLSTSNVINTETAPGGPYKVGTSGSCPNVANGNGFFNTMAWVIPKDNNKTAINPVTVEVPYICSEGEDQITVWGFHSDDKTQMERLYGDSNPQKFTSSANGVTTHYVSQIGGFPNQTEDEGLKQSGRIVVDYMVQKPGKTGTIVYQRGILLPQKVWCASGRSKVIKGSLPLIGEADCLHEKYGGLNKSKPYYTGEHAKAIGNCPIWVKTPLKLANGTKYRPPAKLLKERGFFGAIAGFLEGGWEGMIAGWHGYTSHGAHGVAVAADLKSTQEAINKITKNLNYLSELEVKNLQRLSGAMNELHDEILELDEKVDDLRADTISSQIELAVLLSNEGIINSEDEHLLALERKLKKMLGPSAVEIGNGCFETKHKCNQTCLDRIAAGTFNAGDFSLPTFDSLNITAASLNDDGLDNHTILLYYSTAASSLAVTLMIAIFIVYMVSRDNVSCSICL
# assay-summary: ELISA
quantity: binding result

C7G6-IgG (antibody, V domains shown) VH: EVQLQQSGPELVKPGASVKISCKASGYTFTDYNMHWVKQSLGKSLEWIGYIYPNNGGTGYNQKFESKATLTADNSSSTAYMELRTLTSEDSAVYYCVRSGAYYFNYLVPYFDYWGQGTTLTVSS VL: NIVLTQSPASLAVSLGQRGTISCRASESVDIYGNSFMHWYQQKPGQPPKLLIYLASKLECGVCARFNGSGCRTDFTLAIDPVEGDDGATYYCQQNYEDPWTFGGGTKLEIK    binds

Source of measurements: paper PMC6332795
